Target entity: NLRP3 inflammasome (Homo sapiens)
Sequence (Q96P20 whole entry): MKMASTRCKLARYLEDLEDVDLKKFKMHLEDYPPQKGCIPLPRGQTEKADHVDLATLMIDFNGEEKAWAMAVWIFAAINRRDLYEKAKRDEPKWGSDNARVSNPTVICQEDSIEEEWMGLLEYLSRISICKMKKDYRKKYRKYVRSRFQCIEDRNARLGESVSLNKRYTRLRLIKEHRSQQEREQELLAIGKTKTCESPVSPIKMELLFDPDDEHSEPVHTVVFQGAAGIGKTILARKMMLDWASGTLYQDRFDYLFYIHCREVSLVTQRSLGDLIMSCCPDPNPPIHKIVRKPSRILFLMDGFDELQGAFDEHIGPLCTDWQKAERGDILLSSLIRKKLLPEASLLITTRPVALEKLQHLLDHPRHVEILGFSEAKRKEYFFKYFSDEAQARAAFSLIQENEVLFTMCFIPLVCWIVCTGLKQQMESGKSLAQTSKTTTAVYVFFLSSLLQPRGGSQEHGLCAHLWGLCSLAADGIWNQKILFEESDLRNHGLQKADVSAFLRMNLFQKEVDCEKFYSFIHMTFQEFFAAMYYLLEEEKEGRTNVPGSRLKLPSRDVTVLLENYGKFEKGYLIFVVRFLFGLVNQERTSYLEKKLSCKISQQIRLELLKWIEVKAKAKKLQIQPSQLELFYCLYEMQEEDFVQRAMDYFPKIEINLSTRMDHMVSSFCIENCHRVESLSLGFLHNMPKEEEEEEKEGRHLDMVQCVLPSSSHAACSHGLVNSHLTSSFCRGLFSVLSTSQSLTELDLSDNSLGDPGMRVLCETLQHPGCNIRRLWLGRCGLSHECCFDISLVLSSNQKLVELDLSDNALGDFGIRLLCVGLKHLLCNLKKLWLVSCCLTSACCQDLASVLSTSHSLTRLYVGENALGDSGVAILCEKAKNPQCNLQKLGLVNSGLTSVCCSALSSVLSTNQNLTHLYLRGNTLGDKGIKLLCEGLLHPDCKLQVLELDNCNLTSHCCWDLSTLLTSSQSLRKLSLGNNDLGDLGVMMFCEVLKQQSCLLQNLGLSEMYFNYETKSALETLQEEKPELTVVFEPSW
Method: NLRP3 inflammasome activation assay in PBMCs, IL-1β release (ELISA / HTRF)
Type: cell-based
Design: were freshly isolated from human peripheral blood from healthy donors; StemCells Technologies; host or cells: primary human PBMCs, LPS-primed, nigericin-stimulated
Condition context: LPS primed, 10 μM nigericin, read-out: PBMC IL-1β IC50
One threshold, 300 nM, splits the recorded IC50 values: lower ones are 1 (yes), equal or higher ones are 0 (no).

Molecule: Cn1ccc(S(N)(=O)=NC(=O)Nc2c3c(cc4c2CCC4)CCC3)n1 (racemic) [Example 12]
Class name: 0 (no)
--
Molecule: NS(=O)(=NC(=O)Nc1c2c(c(F)c3c1CCC3)CCC2)c1cnn2c1OCCC2 (racemic) [Example 4]
Class name: 1 (yes)
--
Molecule: COC1CN(C2COc3c(S(N)(=O)=NC(=O)Nc4c5c(cc6c4CCC6)CCC5)cnn3C2)C1 (single isomer, unassigned) [Example 38]
Class name: 0 (no)
--
Molecule: CNC1COc2c(S(N)(=O)=NC(=O)Nc3c(C(C)C)cc(OC)nc3C(C)C)cnn2C1 (single isomer, unassigned) [Example 50]
Class name: 1 (yes)
--
Molecule: CN(C)C1COc2c(S(N)(=O)=NC(=O)Nc3c4c(cc5c3CCC5)CCC4)cnn2C1 (single isomer, unassigned) [Example 33]
Class name: 0 (no)
--
Molecule: NS(=O)(=NC(=O)Nc1c2c(cc3c1CCC3)CCC2)c1cnn2c1CCCC2 (racemic) [Example 60]
Class name: 0 (no)
--
Molecule: NS(=O)(=NC(=O)Nc1c2c(cc3c1CCC3)CCC2)c1cnn2c1OCC(NCCF)C2 (single isomer, unassigned) [Example 36]
Class name: 1 (yes)
--
Molecule: NS(=O)(=NC(=O)Nc1c2c(c(C(=O)O)c3c1CCC3)CCC2)c1cnn2c1OCCC2 (racemic) [Example 37]
Class name: 0 (no)
--
Molecule: CNCCOC1COc2c(S(N)(=O)=NC(=O)Nc3c4c(cc5c3CCC5)CCC4)cnn2C1 (single isomer, unassigned) [Example 56]
Class name: 0 (no)
--
Molecule: CC1CCOc2c(S(N)(=O)=NC(=O)Nc3c4c(cc5c3CCC5)CCC4)cnn2C1 (single isomer, unassigned) [Example 67]
Class name: 1 (yes)
--
Molecule: COc1cc(C(C)C)c(NC(=O)N=S(N)(=O)c2cnn3c2OCC(OC)C3)c(C(C)C)n1 (single isomer, unassigned) [Example 53]
Class name: 0 (no)
--
Molecule: Cn1cc(S(N)(=O)=NC(=O)Nc2c3c(cc4c2CCC4)CCC3)cn1 (racemic) [Example 5]
Class name: 0 (no)
--
Molecule: NS(=O)(=NC(=O)Nc1c2c(cc3c1CCC3)CCC2)c1cnn2c1OCCC2 (racemic) [Example 1]
Class name: 1 (yes)

src = patent US12234245B2
